For each entry below, report its IC50 value.
biological target: CDK4/Cyclin D1 (Homo sapiens, UniProt P11802); construct: CDK4 amino acids 1–303; experiment: CDK inhibition assay (Scintillation Proximity Assay, GST-Retinoblastoma substrate); conditions: in-vitro SPA kinase assay, CDK4/Cyclin D1, GST-Rb substrate; read-out: CDK4 inhibitory activity IC50
Sequence (P11802 whole entry, the tested form may be a part): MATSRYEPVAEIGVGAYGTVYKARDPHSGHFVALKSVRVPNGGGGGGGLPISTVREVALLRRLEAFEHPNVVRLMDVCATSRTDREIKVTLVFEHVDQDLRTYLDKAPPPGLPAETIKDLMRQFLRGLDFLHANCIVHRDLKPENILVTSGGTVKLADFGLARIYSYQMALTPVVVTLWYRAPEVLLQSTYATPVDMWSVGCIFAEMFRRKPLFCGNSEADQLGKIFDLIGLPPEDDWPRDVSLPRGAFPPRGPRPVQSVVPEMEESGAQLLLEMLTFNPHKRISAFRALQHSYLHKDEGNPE
Sequence (P24385 whole entry partner, the tested form may be a part): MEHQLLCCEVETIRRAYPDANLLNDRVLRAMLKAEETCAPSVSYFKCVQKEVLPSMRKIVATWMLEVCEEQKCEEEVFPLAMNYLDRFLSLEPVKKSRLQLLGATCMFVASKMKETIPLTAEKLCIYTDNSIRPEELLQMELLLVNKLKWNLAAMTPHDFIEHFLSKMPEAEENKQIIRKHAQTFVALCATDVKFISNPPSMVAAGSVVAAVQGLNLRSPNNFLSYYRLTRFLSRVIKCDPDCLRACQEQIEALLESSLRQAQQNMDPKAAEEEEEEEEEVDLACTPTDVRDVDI
State the answer as a number, implicitly in nM.

Exercise: Give IC50 for this entry on CDK4/Cyclin D1 (Homo sapiens, UniProt P11802): Cc1ccc(Nc2ccnc(Nc3ccc(OCC(O)CN(C)C)cc3)n2)c(Br)c1 (centres unmarked)
Solution: 600

Exercise: Report the value of IC50 obtained on CDK4/Cyclin D1 (Homo sapiens, UniProt P11802) for CN(C)CC(O)COc1ccc(Nc2nccc(Nc3cc(Cl)ccc3Cl)n2)cc1 (centres unmarked) .
Solution: 530

The values you see were collected from patent US7176212B2.
